pKi: −log10 of the molar value.
Reported pKi, UniProt P43235.
Sequence (P43235 whole entry): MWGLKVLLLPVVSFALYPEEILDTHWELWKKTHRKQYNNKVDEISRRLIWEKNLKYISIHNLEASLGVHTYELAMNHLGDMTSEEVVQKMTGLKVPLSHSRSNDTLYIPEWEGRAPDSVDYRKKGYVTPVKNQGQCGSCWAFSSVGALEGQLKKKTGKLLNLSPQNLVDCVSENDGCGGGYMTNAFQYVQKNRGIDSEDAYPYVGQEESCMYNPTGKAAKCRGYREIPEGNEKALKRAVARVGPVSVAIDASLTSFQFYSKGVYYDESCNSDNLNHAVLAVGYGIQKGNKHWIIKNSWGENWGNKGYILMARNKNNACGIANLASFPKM

// worked examples, pKi included
CC(C)C[C@H](NC(=O)C1CCCCC1)C(=O)NC1COCC1=O (stereo partly specified) :: < 6.00
NCCCC[C@H](NC(=O)c1cc2ccccc2s1)C(=O)NC1COCC1=O (stereo partly specified) :: < 5.00
O=C(N[C@@H](Cn1ccnc1)C(=O)NC1COCC1=O)c1cc2ccccc2s1 (stereo partly specified) :: < 5.00
NC(=O)CC[C@H](NC(=O)c1cc2ccccc2s1)C(=O)NC1COCC1=O (stereo partly specified) :: < 5.00
CC(C)C[C@H](NC(=O)c1cccc([N+](=O)[O-])c1)C(=O)NC1COCC1=O (stereo partly specified) :: < 6.00

// lookup pKi for O=C(CNC(=O)c1cc2ccccc2s1)NC1COCC1=O (stereo unspecified)
< 5.00
